assay: Inhibition of tubulin microtubule disassembly
ENDPOINT: ID50

// below: answered compounds
- INPUT SMILES: "CC(=O)O[C@H]1C[C@]2(C(C)(C)O)C(=C1C)[C@@H](OC(=O)c1ccccc1)[C@H](OC(=O)c1ccccc1)[C@]1(C)[C@@H](OC(C)=O)C[C@H]3OC[C@@]3(OC(C)=O)[C@H]1[C@@H]2OC(=O)c1ccccc1"
  RESULT: "> 100 µM"
- INPUT SMILES: "CC(=O)O[C@H]1C[C@H]2OC[C@@]2(OC(C)=O)[C@H]2[C@H](OC(C)=O)[C@]3(C(C)(C)O)C[C@H](OC(=O)/C=C/c4ccccc4)C(C)=C3[C@@H](OC(=O)c3ccccc3)[C@H](OC(C)=O)[C@]12C"
  RESULT: "> 100 µM"
- INPUT SMILES: "CC(=O)O[C@@]12CO[C@@H]1C[C@@H](O)[C@@]1(C)C(=O)C(=O)C3=C(C)[C@@H](O)C[C@@](O)([C@@H](OC(=O)c4ccccc4)[C@H]21)C3(C)C"
  RESULT: "> 100 µM"

stdin: Reported ID50 for C=C1[C@@H](O)C[C@H](OC(C)=O)[C@@]2(C)[C@@H](OC(C)=O)[C@H](OC(=O)c3ccccc3)C3=C(C)[C@@H](O)C[C@@]3(C(C)(C)O)[C@@H](OC(C)=O)[C@H]12 : what is it?
stdout: > 100 µM

stdin: Same thing, different compound: CC(=O)O[C@H]1C(=O)[C@@]2(C)[C@H]([C@H](OC(=O)c3ccccc3)[C@]3(O)C[C@H](OC(=O)[C@H](O)[C@@H](NC(=O)c4ccccc4)c4ccccc4)C(C)=C1C3(C)C)[C@]1(OC(C)=O)CO[C@@H]1C[C@@H]2O
stdout: 0.29 µM

stdin: Same thing, different compound: CC(=O)O[C@H]1C(=O)[C@]2(CO)[C@H](O)C[C@H]3OC[C@@]3(OC(C)=O)[C@H]2[C@H](OC(=O)c2ccccc2)[C@]2(O)C[C@H](O)C(C)=C1C2(C)C
stdout: > 100 µM
